Tested System: Cytochrome P450 1A2 (Homo sapiens, UniProt P05177)
Sequence (P05177 whole entry): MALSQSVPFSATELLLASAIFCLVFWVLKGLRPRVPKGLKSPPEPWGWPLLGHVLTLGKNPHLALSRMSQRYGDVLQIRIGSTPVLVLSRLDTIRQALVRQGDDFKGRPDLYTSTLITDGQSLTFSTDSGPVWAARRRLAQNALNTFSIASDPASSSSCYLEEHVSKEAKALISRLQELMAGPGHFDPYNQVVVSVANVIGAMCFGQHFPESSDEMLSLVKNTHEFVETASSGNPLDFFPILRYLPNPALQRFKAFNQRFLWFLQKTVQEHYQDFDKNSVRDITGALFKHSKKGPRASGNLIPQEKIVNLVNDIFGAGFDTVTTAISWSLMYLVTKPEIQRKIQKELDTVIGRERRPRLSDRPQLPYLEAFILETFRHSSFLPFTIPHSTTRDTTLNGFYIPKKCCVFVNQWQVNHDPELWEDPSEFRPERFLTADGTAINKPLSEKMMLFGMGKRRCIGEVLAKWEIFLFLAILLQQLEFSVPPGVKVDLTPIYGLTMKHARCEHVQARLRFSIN
Quantity Name: IC50

# return recorded IC50 for input COC(=O)C1=C(CN2CCOC[C@H]2C(=O)O)N=C(c2nccs2)N[C@H]1c1ccc(F)cc1Cl
> 50 µM
